Test system: HEK-293T
Assay: Cytotoxicity against human HEK293T cells after 48 hrs by MTT assay
Type: cell-based
READOUT: pIC50
When answering, recall that pIC50 equals minus log10 of the concentration in mol/L, and write that number alone.

C#CC[n+]1ccc2c([nH]c3ccccc32)c1C(=O)/C=C/c1cc(OC)c(OC)c(OC)c1.[Br-] : 4.26
COc1ccc(/C=C/C(=O)c2c3[nH]c4ccccc4c3cc[n+]2Cc2ccccc2)cc1.[Br-] : 4.38
COc1cc(/C=C/C(=O)c2nccc3c2[nH]c2ccccc23)cc(OC)c1OC : 4.09

Note: attention shifts to another entry.
Look at this molecule and give its reported pIC50. O=C(/C=C/c1ccc2c(c1)OCO2)c1c2[nH]c3ccccc3c2cc[n+]1Cc1ccccc1.[Br-] 4.26

====

Tested on: Staphylococcus aureus
Assay: Antibacterial activity against Staphylococcus aureus MTCC 96 assessed as zone of inhibition measured after 18 hrs by disc diffusion method
Type: functional
Documented inhibition zone (IZ) across a set of compounds

CN(C)c1ccc(/C=C/C(=O)c2nccc3c2[nH]c2ccccc23)cc1 : 11 mm

Quick one: inhibition zone (IZ) of C#CC[n+]1ccc2c([nH]c3ccccc32)c1C(=O)/C=C/c1ccc(OC)cc1.[Br-] ? 9 mm

# inhibition zone (IZ) lookup, item O=C(N[C@H](CO)[C@H](O)c1ccc([N+](=O)[O-])cc1)C(Cl)Cl 22 mm

====

Test system: HeLa
Assay: Cytotoxicity against human HeLa cells after 48 hrs by MTT assay
Type: functional, cell-based
Simple rule here: IC50 less than 50 µM is yes, otherwise no.

For orientation, consider the following solved cases.
CCCC[n+]1ccc2c([nH]c3ccccc32)c1C(=O)/C=C/c1ccc2c(c1)OCO2.[Br-] : no
O=C(/C=C/c1ccc2c(c1)OCO2)c1c2[nH]c3ccccc3c2cc[n+]1Cc1ccccc1.[Br-] : yes
CCCC[n+]1ccc2c([nH]c3ccccc32)c1C(=O)/C=C/c1cc(OC)c(OC)c(OC)c1.[Br-] : yes
COc1cc(/C=C/C(=O)c2c3[nH]c4ccccc4c3cc[n+]2Cc2ccccc2)cc(OC)c1OC.[Br-] : yes
C#CC[n+]1ccc2c([nH]c3ccccc32)c1C(=O)/C=C/c1ccc(OC)cc1.[Br-] : no

Here's an entry: O=C(/C=C/c1ccc2c(c1)OCO2)c1nccc2c1[nH]c1ccccc12 . Is its IC50 below 50 µM? no

# check: IC50 < 50 µM for COc1ccc(/C=C/C(=O)c2nccc3c2[nH]c2ccccc23)cc1 no

Strictly below 50 µM: is that where IC50 of CCCC[n+]1ccc2c([nH]c3ccccc32)c1C(=O)/C=C/c1ccc(OC)cc1.[Br-] sits? yes

Please check: IC50 for C#CC[n+]1ccc2c([nH]c3ccccc32)c1C(=O)/C=C/c1ccc2c(c1)OCO2.[Br-] , strictly under 50 µM or not? yes

Does this compound meet the criterion IC50 < 50 µM? COc1cc(/C=C/C(=O)c2nccc3c2[nH]c2ccccc23)cc(OC)c1OC no

A record lists Cc1ccc(/C=C/C(=O)c2nccc3c2[nH]c2ccccc23)cc1 . Is its IC50 below 50 µM? no

Record O=C(/C=C/c1ccccc1)c1nccc2c1[nH]c1ccccc12 : is its IC50 strictly below 50 µM? no

hey, is IC50 for COc1ccc(/C=C/C(=O)c2c3[nH]c4ccccc4c3cc[n+]2Cc2ccccc2)cc1.[Br-] lower than 50 µM or not? no

Report whether reported IC50 is lower than 50 µM (strictly) for C#CC[n+]1ccc2c([nH]c3ccccc32)c1C(=O)/C=C/c1cc(OC)c(OC)c(OC)c1.[Br-] no

====

Test system: Enterobacter cloacae
Experiment: Antibacterial activity against Enterobacter cloacae NAIMCC-B-02025 after 24 hrs by broth microdilution assay
Type: functional
Conditions: NAIMCC-B-02025, 24 h
READOUT: MIC

Consider the worked cases shown below.
COc1ccc(/C=C/C(=O)c2nccc3c2[nH]c2ccccc23)cc1 : 846 µM
C#CC[n+]1ccc2c([nH]c3ccccc32)c1C(=O)/C=C/c1cc(OC)c(OC)c(OC)c1.[Br-] : 590 µM
COc1ccc(/C=C/C(=O)c2c3[nH]c4ccccc4c3cc[n+]2Cc2ccccc2)cc1.[Br-] : 874 µM
CN(C)c1ccc(/C=C/C(=O)c2nccc3c2[nH]c2ccccc23)cc1 : 880 µM
COc1cc(/C=C/C(=O)c2c3[nH]c4ccccc4c3cc[n+]2Cc2ccccc2)cc(OC)c1OC.[Br-] : 726 µM

For Cc1ccc(/C=C/C(=O)c2nccc3c2[nH]c2ccccc23)cc1 , what is its reported MIC? 828 µM

Entry under review: COc1cc(/C=C/C(=O)c2nccc3c2[nH]c2ccccc23)cc(OC)c1OC . Reported MIC? 834 µM

For the compound O=C(/C=C/c1ccc(C(F)(F)F)cc1)c1nccc2c1[nH]c1ccccc12 , what MIC is on record? 726 µM

Reported MIC, compound O=C(N[C@H](CO)[C@H](O)c1ccc([N+](=O)[O-])cc1)C(Cl)Cl [CHLORAMPHENICOL] : ____ 24 µM

Query (compound): CCCC[n+]1ccc2c([nH]c3ccccc32)c1C(=O)/C=C/c1cc(OC)c(OC)c(OC)c1.[Br-] ; field requested: MIC 806 µM

====

Entries and their measured inhibition zone (IZ) follow.
System: Enterobacter cloacae
Assay: Antibacterial activity against Enterobacter cloacae NAIMCC-B-02025 assessed as zone of inhibition measured after 18 hrs by disc diffusion method
Type: functional
State just the number; it will be interpreted in mm.

Answered cases to consult:
C#CC[n+]1ccc2c([nH]c3ccccc32)c1C(=O)/C=C/c1ccc(OC)cc1.[Br-] : 6
CN(C)c1ccc(/C=C/C(=O)c2nccc3c2[nH]c2ccccc23)cc1 : 8
O=C(/C=C/c1ccc(C(F)(F)F)cc1)c1nccc2c1[nH]c1ccccc12 : 11

Please look up its inhibition zone (IZ): C#CC[n+]1ccc2c([nH]c3ccccc32)c1C(=O)/C=C/c1cc(OC)c(OC)c(OC)c1.[Br-] 13

Can you share its inhibition zone (IZ)? I mean this molecule: COc1cc(/C=C/C(=O)c2c3[nH]c4ccccc4c3cc[n+]2Cc2ccccc2)cc(OC)c1OC.[Br-] 12

If you can, please state the reported inhibition zone (IZ) value of COc1cc(/C=C/C(=O)c2nccc3c2[nH]c2ccccc23)cc(OC)c1OC . 10

Quick one: inhibition zone (IZ) for COc1ccc(/C=C/C(=O)c2nccc3c2[nH]c2ccccc23)cc1 ? 9

Field request: inhibition zone (IZ) | item: O=C(/C=C/c1ccc2c(c1)OCO2)c1c2[nH]c3ccccc3c2cc[n+]1Cc1ccccc1.[Br-] 8

# input molecule: CCCC[n+]1ccc2c([nH]c3ccccc32)c1C(=O)/C=C/c1cc(OC)c(OC)c(OC)c1.[Br-] ; wanted: its inhibition zone (IZ) 10

====

Tested on: HEK-293T
Assay: Cytotoxicity against human HEK293T cells after 48 hrs by MTT assay
Type: cell-based
READOUT: pIC50
By convention, pIC50 is the negative base-10 log of a molar concentration.

CCCC[n+]1ccc2c([nH]c3ccccc32)c1C(=O)/C=C/c1ccc(OC)cc1.[Br-] : 4.45
C#CC[n+]1ccc2c([nH]c3ccccc32)c1C(=O)/C=C/c1ccc2c(c1)OCO2.[Br-] : 4.72
CCCC[n+]1ccc2c([nH]c3ccccc32)c1C(=O)/C=C/c1cc(OC)c(OC)c(OC)c1.[Br-] : 4.46
COc1cccc2c1C(=O)c1c(O)c3c(c(O)c1C2=O)C[C@@](O)(C(=O)CO)C[C@@H]3O[C@H]1C[C@H](N)[C@H](O)[C@H](C)O1 : 5.44
O=C(/C=C/c1ccccc1)c1nccc2c1[nH]c1ccccc12 : 4.18

Proceeding to the next compound to report its pIC50.
Which pIC50 is reported with HEK-293T for this entry: COc1cc(/C=C/C(=O)c2c3[nH]c4ccccc4c3cc[n+]2Cc2ccccc2)cc(OC)c1OC.[Br-] ? 4.76

====

System: MDA-MB-231
Assay: Cytotoxicity against human MDA-MB-231 cells after 48 hrs by MTT assay
Type: functional, cell-based
Details: MDA-MB-231, 48 h
READOUT: pIC50
Note: pIC50 values are expressed as the negative base-10 logarithm of concentration in M.

CCCC[n+]1ccc2c([nH]c3ccccc32)c1C(=O)/C=C/c1cc(OC)c(OC)c(OC)c1.[Br-] : 4.49
COc1cc(/C=C/C(=O)c2nccc3c2[nH]c2ccccc23)cc(OC)c1OC : 4.15
C#CC[n+]1ccc2c([nH]c3ccccc32)c1C(=O)/C=C/c1ccc2c(c1)OCO2.[Br-] : 4.67
CCCC[n+]1ccc2c([nH]c3ccccc32)c1C(=O)/C=C/c1ccc(OC)cc1.[Br-] : 4.39
O=C(/C=C/c1ccc2c(c1)OCO2)c1c2[nH]c3ccccc3c2cc[n+]1Cc1ccccc1.[Br-] : 4.32

Turning to the following molecule.
Given C#CC[n+]1ccc2c([nH]c3ccccc32)c1C(=O)/C=C/c1cc(OC)c(OC)c(OC)c1.[Br-] , state its recorded pIC50. 4.22
